# tested-system: recombinant Schistosoma japonicum aldose reductase (rSjAR; SjAR) (Schistosoma japonicum)
# Construct: SjAR-pET28a plasmid, expressed in E. coli BL21(DE3)
# Sequence (Q5DD64 1-310): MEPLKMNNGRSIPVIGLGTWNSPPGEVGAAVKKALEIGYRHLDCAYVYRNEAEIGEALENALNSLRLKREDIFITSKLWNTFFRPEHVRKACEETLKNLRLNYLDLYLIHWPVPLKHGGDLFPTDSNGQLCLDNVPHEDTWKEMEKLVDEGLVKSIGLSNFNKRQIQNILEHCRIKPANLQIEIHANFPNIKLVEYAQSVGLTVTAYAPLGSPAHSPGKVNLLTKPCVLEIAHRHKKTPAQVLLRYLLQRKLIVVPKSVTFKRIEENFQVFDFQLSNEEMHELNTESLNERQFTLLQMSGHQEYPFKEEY
# assay-info: NADPH depletion at […] nm, microplate
value-type: IC50 (µM)
Supply the numeric figure in µM, leaving out any unit text.

Query: Sample O=C1c2ccccc2C(=C2c3ccccc3C(=O)c3ccccc32)c2ccccc21 — what was its IC50?
Reply: 30.6
